Values were extracted from PubChem BioAssay.

# Test system: Plasmodium falciparum Sir2 (PF13_0152, Sir2A)
# experimental-protocol: pfSir2 binders on small-molecule microarrays, primary screen, biochemical, small-molecule microarray, 635 nm fluorescence (AID 1098);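 note: score merges spot fluorescence intensity with its signal-to-noise ratio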
# recorded-conditions: small-molecule microarray binding, fluorescence 635 nm; higher = more signal
reported-endpoint: composite z-score

Look over these answered cases.
# compound, composite z-score
records = [
    ("C=CCOC(=O)[C@H]1[C@@H]2C(=O)O[C@@H](c3ccccc3)[C@@H](c3ccccc3)N2[C@@H](c2ccc(OCCOC(=O)[C@H]3C[C@H]4C(=O)N5CCC[C@H]5C(=O)N4[C@H]3c3ccc(O)cc3)cc2)[C@]12C(=O)Nc1ccccc12", 1.54),
    ("COCCOC(=O)N1C(=O)[C@@]2(c3cc(C#Cc4ccc(OC)cc4)ccc31)[C@H](C(N)=O)[C@H]1C(=O)O[C@H](c3ccccc3)[C@H](c3ccccc3)N1[C@@H]2c1ccccc1OCCO", 1.48),
    ("COc1ccc(C(O)C2C=CC3C(=O)N(c4ccccc4)C(=O)C3N2Nc2ccc(C(C)C)cc2)cc1OCc1ccccc1 (stereo unspecified)", 1.5),
]

// each listed compound needs a value for composite z-score
1. CC1CC/C=C\[C@H]2OC34C=CCN(C(C)(C)C)C(=O)[C@H]3N(CCCCCCO)C(=O)[C@@H]4C2C(=O)O1 (stereo partly specified)
2. [N-]=[N+]=NCc1ccccc1[C@@H]1OC(c2ccc(OCCCO)cc2)=N[C@]1(Cc1ccccc1N=[N+]=[N-])C(=O)N1CCOCC1
3. CCCCCN1CC=CC23O[C@@H]4/C=C\CCCOC(=O)C4[C@H]2C(=O)N(CCCO)[C@@H]3C1=O (stereo partly specified)

Result:
[2.05, 0.814, 0.93]

----------
Exercise: state measured z-score for each of the molecules provided.
# experimental-protocol: basal RPMI8226 mitochondrial membrane potential changes, profiling panel, cell-based, JC-1 fluorescence, 24 h, 100 nL compound (AID 1169); note: test concentration not given here
# recorded-conditions: RPMI8226 myeloma, JC-1 mitochondrial potential fluorescence, higher = more signal
Numbers only.

Consider the following illustrative entries.
# structure-string, z-score
data = [
    ("CN(C)C(=O)[C@@]1(Cc2ccccc2)N=C(c2ccc(OCCCO)cc2)O[C@H]1c1ccccc1N=[N+]=[N-]", -0.981),
    ("COc1ccc([Si](C)(C)[C@H]2[C@H](CCn3cc([C@H](O)c4ccccc4)nn3)O[C@@]3(C(=O)N(Cc4cccc(N5CCOC5=O)c4)c4ccccc43)[C@@H]2C)cc1", -0.463),
]

Moving on to the next molecule.
So for CN(C)C(=O)[C@]1(Cc2ccccc2CN=[N+]=[N-])N=C(c2ccc(OCCCO)cc2)O[C@@H]1c1ccccc1CN=[N+]=[N-] , the logged z-score turned out to be -1.13

----------
For each of the compounds below, state its z-score.
# study-target: NADPH oxidase 4 (Homo sapiens)
# experimental-protocol: NOX4-dependent H2O2 signal modulators, primary screen, NOX inhibitor project, cell-based, HEK293-NOX4, tetracycline-induced, Amplex Red fluorescence (AID 1160)
# recorded-conditions: 45 min, higher = more signal, called active from +8 up or from −8 down
Answers are plain numbers.

See these solved cases before continuing.
# structure-string, z-score
data = [
    ("COCCOC(=O)N1C(=O)[C@@]2(c3cc(C#Cc4ccc(OC)cc4)ccc31)[C@H](C(N)=O)[C@H]1C(=O)O[C@H](c3ccccc3)[C@H](c3ccccc3)N1[C@@H]2c1ccccc1OCCO", 1.1),
    ("COC(=O)c1c(CC[C@@H](CO)NC(=O)N[C@@H](C)Cn2cc(C3(O)CCCCC3)nn2)oc(C(C)=O)c1C(=O)OC", -2.61),
]

Let's switch to this compound now.
For record COC(=O)[C@@]1(Cc2ccc(F)cc2)[C@@H]2[C@@H](CC(=O)[C@H]2CC(=O)C(=O)N(C)C)CN1C(=O)c1ccccc1 the listed z-score is -0.21

----------
For each of the compounds below, state its z-score.
# experimental-protocol: E. coli acrAB mutant growth effects, primary screen, E. coli filamentation inducers, strain DRC39, OD650, 24 h (AID 1178);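 note: growth measured as culture turbidity by optical density at 650 nm; test concentration not given here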
# recorded-conditions: higher = more signal, called active from +8 up or from −8 down
The source made the active and inactive calls.

The following compounds have reported results that may help.
# compound, reported-endpoint, measured-result
records = [
    ("COC(=O)[C@@]1(Cc2ccccc2)[C@H]2c3cc(C(=O)N4CCCC4)n(Cc4nc5ccccc5[nH]4)c3C[C@H]2CN1C(=O)c1ccccc1", "z-score", "-0.538 (inactive)"),
    ("COC(=O)[C@@]1(Cc2ccc(F)cc2)[C@H]2c3cc(C(=O)N(C)C)n(Cc4ccc(S(C)(=O)=O)cc4)c3C[C@H]2CN1C(=O)c1ccccc1", "z-score", "-0.104 (inactive)"),
    ("C=CCOC(=O)[C@H]1[C@@H]2C(=O)O[C@@H](c3ccccc3)[C@@H](c3ccccc3)N2[C@@H](c2ccc(OCCOC(=O)[C@@H]3C[C@@H]4C(=O)N5CCC[C@H]5C(=O)N4[C@@H]3c3cccc(OCCO)c3)cc2)[C@]12C(=O)Nc1ccccc12", "z-score", "-0.701 (inactive)"),
    ("COC(=O)[C@@]1(Cc2ccc(OC)cc2)[C@H]2c3cc(C(=O)N4CCCC4)n(Cc4ccc(OC)c(OC)c4)c3C[C@H]2CN1C(=O)c1ccccc1", "z-score", "-0.333 (inactive)"),
]

Quick one: give me z-score for each item below, same order please.
1. C=CCOC(=O)[C@H]1[C@@H]2C(=O)O[C@@H](c3ccccc3)[C@@H](c3ccccc3)N2[C@@H](c2ccc(OCCOC(=O)[C@H]3C[C@H]4C(=O)N[C@@H](CC(C)C)C(=O)N4[C@H]3c3ccc(O)cc3)cc2)[C@]12C(=O)Nc1ccc(I)cc12
2. COC(=O)[C@@]1(Cc2ccc(OC)cc2)[C@H]2c3cc(C(=O)N4CCCC4)n(Cc4ccccc4)c3C[C@H]2CN1C(=O)c1ccccc1
3. C=CCC(OC(C)=O)[C@@H]1[C@@H](N(Cc2cccc3ccccc23)C(=O)c2ccc(-c3ccccc3)cc2)c2cc(OCCCO)ccc2N1C(=O)Cc1ccc(OC)cc1 (stereo not given in full)
4. COCCOC(=O)N1C(=O)[C@@]2(c3cc(C#CCCO)ccc31)[C@H](c1ccc(OCCO)cc1)N1[C@H](c3ccccc3)[C@H](c3ccccc3)OC(=O)[C@H]1[C@@H]2C(=O)N1CCN(c2ncccn2)CC1
5. COCCOC(=O)N1C(=O)[C@@]2(c3cc(C#CC4=CCCCC4)ccc31)[C@H](C(=O)Nc1nc3ccccc3s1)[C@H]1C(=O)O[C@H](c3ccccc3)[C@H](c3ccccc3)N1[C@@H]2c1ccc(OCCO)cc1

Result:
-0.267 (inactive)
-0.559 (inactive)
0.738 (inactive)
-0.448 (inactive)
-1.26 (inactive)

For each entry beneath this line, provide reported z-score.
1. CCOC(=O)C[C@H]1[C@H](OC(=O)Cc2ccc3c(c2)OCO3)[C@@H](NC(=O)c2ccc(-c3ccccc3)cc2)c2cc(OCCCO)ccc2N1C(=O)Cc1ccc(OC)cc1
2. C[N+](C)(C)CCCCNC(=O)[C@H]1C[C@H]2C(=O)N[C@@H](Cc3ccccc3)C(=O)N2[C@H]1c1ccc(O)cc1

Result:
1: 0.261 (inactive); 2: 0.783 (inactive)

Here are 4 compounds. What values of z-score were reported for them?
1. CCCCC(O)C1C=CC2C(=O)N(c3ccccc3)C(=O)C2N1Nc1ccccc1F (stereo not given)
2. COc1ccc([Si](C)(C)[C@H]2[C@H](CC(=O)N3CCC[C@H]3CO)O[C@@]3(C(=O)N(Cc4cccc(N5C(=O)c6cccc7cccc5c67)c4)c4ccccc43)[C@@H]2C)cc1
3. CC[C@@H]1C=C(C(=O)O)[C@H](c2ccco2)N1S(=O)(=O)c1ccc(C)cc1
4. C=C/C=C/[C@H]1C(=C)CN([C@@H](Cc2ccccc2)C(=O)OC)[C@@H]1[C@H](O)Cc1ccccc1

Result:
1. -0.221 (inactive)
2. -0.672 (inactive)
3. -0.721 (inactive)
4. 0.701 (inactive)

For each of the compounds below, note its z-score.
1. O=C1O[C@@H](c2ccccc2)[C@@H](c2ccccc2)N2[C@@H](c3ccccc3OCCO)[C@]3(C(=O)Nc4ccc(C#CC5=CCCCC5)cc43)[C@@H](C(=O)Nc3nc4ccccc4s3)[C@H]12
2. O=C1OCCC/C=C\[C@H]2OC34C=CCN(CCN5CCOCC5)C(=O)[C@H]3N(CCCO)C(=O)[C@@H]4C12 (stereo not given in full)
3. C=C(/C(=C/C[C@@H](OC(C)=O)c1ccc(OCCO)cc1)c1cnc2ccccc2c1)C(C)C
4. CN(C)C(=O)[C@@]1(Cc2ccccc2CN=[N+]=[N-])N=C(c2ccc(OCCCO)cc2)O[C@H]1c1ccccc1
5. COCCOC(=O)N1C(=O)[C@@]2(c3cc(C#CC4=CCCCC4)ccc31)[C@H](C(=O)Nc1nc3ccccc3s1)[C@H]1C(=O)O[C@H](c3ccccc3)[C@H](c3ccccc3)N1[C@@H]2c1ccccc1OCCO

Result:
["-0.583 (inactive)", "-0.0395 (inactive)", "1.58 (inactive)", "0.316 (inactive)", "-0.653 (inactive)"]

Give z-score for each listed item.
1. CC(=O)N1Cc2ccccc2C[C@@]2(COC(c3ccc(OCCCO)cc3)=N2)C1=O
2. CCCCc1cn(C[C@H](Cc2ccccc2)NC(=O)N[C@H](CO)CCc2oc(C(C)=O)c(C(=O)OC)c2C(=O)OC)nn1

Result:
1.73 (inactive)
0.916 (inactive)

Record z-score for all entries; do not skip any.
1. CN(C)CCCNC(=O)[C@@]1(C)c2ccccc2C(=O)N(Cc2cc(F)cc(C(F)(F)F)c2)[C@H]1c1ccc(CO)cc1
2. O=C1NC(=O)C2C1C=CC(C(O)C(c1ccccc1)c1ccccc1)N2Nc1ccc(Cl)cc1Cl (stereo not given)
3. O=C1OCCC=C[C@H]2OC34C=CCN(CCN5CCOCC5)C(=O)[C@H]3N(CCCCCCO)C(=O)[C@@H]4C12 (stereo not given in full)

Result:
0.706 (inactive)
-0.659 (inactive)
1.14 (inactive)
